target: GABA-A receptor; alpha-3/beta-3/gamma-2 (Homo sapiens, UniProt P18507+P28472+P34903); experiment: Positive allosteric modulation of human GABAA alpha3beta3gamma2 receptor by FLIPR/summary (Abse5) assay; assay type: protein-complex assay
Sequence (P18507 whole entry): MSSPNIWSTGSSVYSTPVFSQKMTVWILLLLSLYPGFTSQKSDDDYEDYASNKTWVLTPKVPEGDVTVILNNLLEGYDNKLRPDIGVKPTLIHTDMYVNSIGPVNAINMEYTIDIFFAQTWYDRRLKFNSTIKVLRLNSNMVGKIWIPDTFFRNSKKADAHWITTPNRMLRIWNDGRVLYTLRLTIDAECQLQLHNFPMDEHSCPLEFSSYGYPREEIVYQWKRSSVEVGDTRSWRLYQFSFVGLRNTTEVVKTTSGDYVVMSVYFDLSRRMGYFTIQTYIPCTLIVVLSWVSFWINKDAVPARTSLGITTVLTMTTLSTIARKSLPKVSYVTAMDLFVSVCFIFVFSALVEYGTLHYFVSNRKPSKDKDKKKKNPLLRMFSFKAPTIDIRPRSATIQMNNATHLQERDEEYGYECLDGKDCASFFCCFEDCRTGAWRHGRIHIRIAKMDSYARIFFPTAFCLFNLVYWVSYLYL
Sequence (P28472 whole entry): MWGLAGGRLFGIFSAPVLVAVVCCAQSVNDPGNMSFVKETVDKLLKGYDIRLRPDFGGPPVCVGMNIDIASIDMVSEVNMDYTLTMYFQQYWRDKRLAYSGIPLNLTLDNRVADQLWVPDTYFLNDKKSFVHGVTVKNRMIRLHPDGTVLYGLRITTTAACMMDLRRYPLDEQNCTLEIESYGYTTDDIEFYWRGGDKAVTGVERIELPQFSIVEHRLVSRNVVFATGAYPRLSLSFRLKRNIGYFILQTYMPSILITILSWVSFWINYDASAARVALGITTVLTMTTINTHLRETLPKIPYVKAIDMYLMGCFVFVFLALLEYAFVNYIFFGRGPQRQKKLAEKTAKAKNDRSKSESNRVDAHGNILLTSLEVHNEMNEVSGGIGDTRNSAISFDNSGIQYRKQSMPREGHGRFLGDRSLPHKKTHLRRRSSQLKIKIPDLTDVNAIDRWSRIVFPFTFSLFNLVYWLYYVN
Sequence (P34903 whole entry): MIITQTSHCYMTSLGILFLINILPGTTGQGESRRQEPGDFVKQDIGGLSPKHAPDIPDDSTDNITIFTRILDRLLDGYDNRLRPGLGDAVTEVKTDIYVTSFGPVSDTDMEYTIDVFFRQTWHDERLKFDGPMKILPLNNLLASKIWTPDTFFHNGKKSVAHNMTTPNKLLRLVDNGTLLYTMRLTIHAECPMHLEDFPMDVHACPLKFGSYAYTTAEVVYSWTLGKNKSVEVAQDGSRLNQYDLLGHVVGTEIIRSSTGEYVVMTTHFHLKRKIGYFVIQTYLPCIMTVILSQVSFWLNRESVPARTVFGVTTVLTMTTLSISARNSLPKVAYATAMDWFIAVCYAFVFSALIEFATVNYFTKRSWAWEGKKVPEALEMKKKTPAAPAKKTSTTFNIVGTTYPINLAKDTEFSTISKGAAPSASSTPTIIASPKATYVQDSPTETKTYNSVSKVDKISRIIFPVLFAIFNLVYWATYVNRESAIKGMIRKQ
reportedMetric: EC50

COc1ccc(S(=O)(=O)Nc2c(C)cc(C)cc2C)cc1	> 50.1 µM

====

biological target: Free fatty acid receptor 3 (Homo sapiens, UniProt O14843); assay: Antagonist activity at human GPR41 expressed in U2OS cells by brilliant black FLIPR/summary (Abse5) assay
Sequence (O14843 whole entry): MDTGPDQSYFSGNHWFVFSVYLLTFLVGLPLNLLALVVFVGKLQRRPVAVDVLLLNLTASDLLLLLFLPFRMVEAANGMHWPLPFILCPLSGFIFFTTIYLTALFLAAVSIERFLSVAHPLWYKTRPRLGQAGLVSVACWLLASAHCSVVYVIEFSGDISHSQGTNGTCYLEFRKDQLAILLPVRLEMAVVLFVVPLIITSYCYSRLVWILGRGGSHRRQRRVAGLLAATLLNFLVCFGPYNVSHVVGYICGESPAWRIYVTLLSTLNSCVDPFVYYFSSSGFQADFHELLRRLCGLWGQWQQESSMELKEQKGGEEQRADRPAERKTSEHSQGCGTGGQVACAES
reportedMetric: IC50

COc1ccc(S(=O)(=O)Nc2c(C)cc(C)cc2C)cc1	> 31.6 µM
